Here the recorded IC50 is given for each entry.
Biological target: TEAD4 (protein of the SPR and TR-FRET assays) (human)
Test: FRET or BRET; TR-FRET assay with TEAD4; potency (IC50) of peptides; methodology in Fig. S8
valueType: IC50 (µM)

- binder: "Ac-PMSNRNFPPSFWNSN-NH2 [Vg^323–337]"
  valueType: "IC50"
  recordedMeasurement: 160
- binder: "Ac-PMSQRSFPASFWNSA-NH2 [VGLL2^135–149]"
  valueType: "IC50"
  recordedMeasurement: 133
- binder: "VGLL2^85–149 (peptide) peptide: Ac-CVLFTYFQGDISSVVDEHFSRALSQPSSYSPSCTSSKAPRSSGPWRDCSFPMSQRSFPASFWNSA-NH2"
  valueType: "IC50"
  recordedMeasurement: 0.0063
- binder: "Ac-CVLFTYFQGDISSVVDEHFSRALS-NH2 [VGLL2^85–108]"
  valueType: "IC50"
  recordedMeasurement: 0.34
